Numbers sourced from patent US9790233B2.

test system: 15-PGDH luciferase fusion construct in LS174T reporter cell line; test: 15-PGDH-luciferase fusion gene reporter induction, LS174T cells; type: cell-based; conditions: Homo sapiens, read-out: Ls174T-SC1 reporter activity, % ([…]), […], Table 18, read-out: Ls174T-SC1 reporter activity, % (2.5 μM)
Listing of recorded activation at […] by entry.
Give the value in % but do not write % after it.

# annotated cases, reported activation at […] shown
{"compound": "COc1ccc(OC)c(N(CC(=O)Nc2ccccc2C(N)=O)S(=O)(=O)c2ccccc2)c1", "assay-target": "15-PGDH luciferase fusion construct in LS174T reporter cell line", "obs-value": 5.45}
{"compound": "COc1ccc(N(CC(=O)Nc2cccnc2)S(=O)(=O)c2ccccc2)c(OC)c1", "assay-target": "15-PGDH luciferase fusion construct in LS174T reporter cell line", "obs-value": 27.7}
{"compound": "COc1ccc(OC)c(N(CC(=O)Nc2ccc(Cl)cc2)S(=O)(=O)c2ccccc2)c1", "assay-target": "15-PGDH luciferase fusion construct in LS174T reporter cell line", "obs-value": 51.2}
{"compound": "COc1ccc(NC(=O)CN(c2cc(OC)ccc2OC)S(=O)(=O)c2ccccc2)cc1", "assay-target": "15-PGDH luciferase fusion construct in LS174T reporter cell line", "obs-value": 7.54}
{"compound": "CCOc1ccc(N(CC(=O)Nc2cccnc2)S(=O)(=O)c2ccccc2)cc1", "assay-target": "15-PGDH luciferase fusion construct in LS174T reporter cell line", "obs-value": -15.5}
{"compound": "CCc1ccccc1N(CC(=O)Nc1cccnc1)S(=O)(=O)c1ccccc1", "assay-target": "15-PGDH luciferase fusion construct in LS174T reporter cell line", "obs-value": 11.5}
{"compound": "COc1ccc(Cl)cc1N(CC(=O)Nc1cccnc1)S(=O)(=O)c1ccccc1", "assay-target": "15-PGDH luciferase fusion construct in LS174T reporter cell line", "obs-value": 128}
{"compound": "O=C(CN(c1cc(Cl)ccc1Cl)S(=O)(=O)c1ccccc1)Nc1cccnc1", "assay-target": "15-PGDH luciferase fusion construct in LS174T reporter cell line", "obs-value": 25.1}

Input line: Hi! What's the reported activation at […] for COc1ccc(N(CC(=O)Nc2cccnc2)S(=O)(=O)c2ccccc2)cc1 on 15-PGDH luciferase fusion construct in LS174T reporter cell line?
Output line: -12.6

Input line: Consider next the compound COC(=O)c1ccccc1NC(=O)CN(c1cc(OC)ccc1OC)S(=O)(=O)c1ccccc1 in the same way.
Output line: -5.9

Input line: Consider next the compound COc1ccc(OC)c(N(CC(=O)NC2CCCCC2)S(=O)(=O)c2ccccc2)c1 in the same way.
Output line: 12.9
